test_system: T1, human TGFβ2 (human, UniProt P61812 303-414)
T1 construct: also called TGFβ2 homodimer
T1 sequence: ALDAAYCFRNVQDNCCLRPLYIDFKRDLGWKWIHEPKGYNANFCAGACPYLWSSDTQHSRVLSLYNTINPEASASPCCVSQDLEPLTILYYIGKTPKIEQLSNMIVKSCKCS
test_details: Biacore off-rate vs wt GC1008, 50 nM
kd var/kd wt reference
Write the number on its own, no unit after it.

Consider the worked cases shown below.
binder: N32S (antibody, V domains shown, GC1008 IgG4 variant) VH: QVQLVQSGAEVKKPGSSVKVSCKASGYTFSSSVISWVRQAPGQGLEWMGGVIPIVDIANYAQRFKGRVTITADESTSTTYMELSSLRSEDTAVYYCASTLGLVLDAMDYWGQGTLVTVSS VL: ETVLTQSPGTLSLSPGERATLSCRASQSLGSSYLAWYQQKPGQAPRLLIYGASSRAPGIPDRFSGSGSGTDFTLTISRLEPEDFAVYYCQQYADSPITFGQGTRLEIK
test_value: 1.3

binder: D56L (antibody, V domains shown, GC1008 IgG4 variant) VH: QVQLVQSGAEVKKPGSSVKVSCKASGYTFSSNVISWVRQAPGQGLEWMGGVIPIVLIANYAQRFKGRVTITADESTSTTYMELSSLRSEDTAVYYCASTLGLVLDAMDYWGQGTLVTVSS VL: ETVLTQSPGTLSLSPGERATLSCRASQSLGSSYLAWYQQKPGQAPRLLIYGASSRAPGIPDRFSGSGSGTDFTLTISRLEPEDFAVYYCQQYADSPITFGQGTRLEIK
test_value: 1.4

binder: S30G (antibody, V domains shown, GC1008 IgG4 variant) VH: QVQLVQSGAEVKKPGSSVKVSCKASGYTFGSNVISWVRQAPGQGLEWMGGVIPIVDIANYAQRFKGRVTITADESTSTTYMELSSLRSEDTAVYYCASTLGLVLDAMDYWGQGTLVTVSS VL: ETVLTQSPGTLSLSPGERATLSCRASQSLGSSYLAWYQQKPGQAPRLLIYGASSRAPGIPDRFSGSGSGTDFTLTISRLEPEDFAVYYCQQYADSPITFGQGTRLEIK
test_value: 0.7

binder: V55G (antibody, V domains shown, GC1008 IgG4 variant) VH: QVQLVQSGAEVKKPGSSVKVSCKASGYTFSSNVISWVRQAPGQGLEWMGGVIPIGDIANYAQRFKGRVTITADESTSTTYMELSSLRSEDTAVYYCASTLGLVLDAMDYWGQGTLVTVSS VL: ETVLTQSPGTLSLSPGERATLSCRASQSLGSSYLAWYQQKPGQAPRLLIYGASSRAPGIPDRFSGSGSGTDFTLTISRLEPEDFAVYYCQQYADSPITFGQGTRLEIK
test_value: 1.9

binder: S31E (antibody, V domains shown, GC1008 IgG4 variant) VH: QVQLVQSGAEVKKPGSSVKVSCKASGYTFSENVISWVRQAPGQGLEWMGGVIPIVDIANYAQRFKGRVTITADESTSTTYMELSSLRSEDTAVYYCASTLGLVLDAMDYWGQGTLVTVSS VL: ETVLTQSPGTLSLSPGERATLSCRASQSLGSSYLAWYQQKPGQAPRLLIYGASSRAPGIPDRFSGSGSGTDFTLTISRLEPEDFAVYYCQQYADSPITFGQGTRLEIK
test_value: 1.4

Now look at this one.
Q: Could you tell me which kd var/kd wt is on file for I54R (antibody, V domains shown, GC1008 IgG4 variant) VH: QVQLVQSGAEVKKPGSSVKVSCKASGYTFSSNVISWVRQAPGQGLEWMGGVIPRVDIANYAQRFKGRVTITADESTSTTYMELSSLRSEDTAVYYCASTLGLVLDAMDYWGQGTLVTVSS VL: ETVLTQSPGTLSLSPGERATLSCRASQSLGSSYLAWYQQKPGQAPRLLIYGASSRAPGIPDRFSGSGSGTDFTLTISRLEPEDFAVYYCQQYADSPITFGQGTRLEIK ?
A: 5.2
